Experiment: Metabolic stability in mouse liver microsomes assessed as half life
Format: ADME, Microsome
value.kind: half-life

Read the entry "CC(C)C[C@](C)(N)COc1ccc(-c2ccnc(C(F)F)c2)nc1C(F)F" and write its reported half-life.
> 2 h

---

Experiment: Cmax in Sprague-Dawley rat plasma with CCI induced thermal hyperalgesia at 1 mg/kg, po measured at 5.75 hrs post dose
Assay type: ADME, organism-based
Design: route oral, dose 1 mg/kg, time 5.75 hrs
value.kind: Cmax
Remember to quote the unit after the number.

Read the entry CC(C)C[C@](C)(N)COc1ccc(-c2ccnc(C(F)F)c2)nc1C(F)F [PILAVAPADIN] and write its reported Cmax.
63 nM

---

Assay: Drug concentration in overnight fasted Sprague-Dawley rat spinal cord with streptozotocin induced diabetic peripheral neuropathic mechanical allodynia at 3 mg/kg, po measured at 5.5 hrs post dose
Format: ADME, organism-based
Settings: read-out: Ct
value.kind: concentration at 5.5 h (nM)
Give bare numbers, in nM.

Read the entry CC(C)C[C@](C)(N)COc1ccc(-c2ccnc(C(F)F)c2)nc1C(F)F [PILAVAPADIN] and write its reported concentration at 5.5 h.
2370

---

Molecular target: Solute carrier organic anion transporter family member 1B1 (Homo sapiens, UniProt Q9Y6L6)
Sequence (Q9Y6L6 whole entry): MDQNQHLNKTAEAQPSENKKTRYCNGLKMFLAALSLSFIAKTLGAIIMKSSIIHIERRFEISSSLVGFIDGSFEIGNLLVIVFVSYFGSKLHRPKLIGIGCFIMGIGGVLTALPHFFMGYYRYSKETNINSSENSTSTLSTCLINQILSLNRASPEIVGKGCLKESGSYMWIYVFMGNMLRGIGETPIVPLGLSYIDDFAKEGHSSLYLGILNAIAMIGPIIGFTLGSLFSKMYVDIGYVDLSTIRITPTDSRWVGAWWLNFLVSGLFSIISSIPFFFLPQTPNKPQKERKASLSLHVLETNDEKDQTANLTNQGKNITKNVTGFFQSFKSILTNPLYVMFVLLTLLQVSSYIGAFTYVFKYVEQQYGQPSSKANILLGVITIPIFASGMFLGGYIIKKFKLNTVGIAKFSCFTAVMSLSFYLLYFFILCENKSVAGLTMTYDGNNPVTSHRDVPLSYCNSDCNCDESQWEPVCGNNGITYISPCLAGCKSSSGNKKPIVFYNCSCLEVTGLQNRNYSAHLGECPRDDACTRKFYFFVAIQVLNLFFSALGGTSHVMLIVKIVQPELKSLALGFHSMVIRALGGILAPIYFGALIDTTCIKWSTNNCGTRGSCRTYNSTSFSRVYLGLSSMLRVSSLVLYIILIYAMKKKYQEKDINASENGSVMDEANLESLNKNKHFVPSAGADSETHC
pIC50: −log10 of the molar value.
value.kind: pIC50

Read the entry "CC(C)C[C@](C)(N)COc1ccc(-c2ccnc(C(F)F)c2)nc1C(F)F" and write its reported pIC50.
< 4.52

---

I'd be grateful if you could share measured fraction unbound at 5 h, 10 µM for these entries.
Assay: Protein binding in human plasma assessed as unbound fraction at 10 uM measured after 5 hrs by LC-MS/MS analysis
Format: ADME, cell-free

INSERT INTO results (compound, endpoint_value) VALUES
  ('Cc1cc(-c2ccc(OC[C@@](C)(N)CC(C)C)c(C(F)F)c2)ccn1', 0.037);

Report fraction unbound at 5 h, 10 µM for every entry below.
1. CC(C)C[C@](C)(N)COc1ccc(-c2ccnc(C(F)F)c2)cc1C(F)F
2. CC(C)C[C@](C)(N)COc1ccc(-c2ccnc(C(F)F)c2)cc1C(F)(F)F
3. CC(C)C[C@](C)(N)COc1ccc(-c2ccnc(C(F)F)c2)nc1C(F)F [PILAVAPADIN]
4. Cc1cc(-c2ccc(OC[C@@](C)(N)CC(C)C)c(C(F)(F)F)c2)ccn1

1. 0.046
2. 0.008
3. 0.085
4. 0.02

Read the entry "CC(C)C[C@](C)(N)COc1ccc(-c2ccnc(C(F)F)c2)cc1C#N" and write its reported fraction unbound at 5 h, 10 µM.
0.14

---

Biological target: UniProt:P08684
Experiment: Inhibition of CYP3A4 (unknown origin) using BFC as substrate
Assay type: ADME
value.kind: pIC50
Give bare numbers, as −log10 of the molar value.

INSERT INTO results (smiles_input, endpoint_value) VALUES
  ('CC(C)C[C@H](N)COc1ccc(-c2ccnc(C(F)(F)F)c2)cc1C#N', 5.89),
  ('CC(C)C[C@H](N)COc1ccc(-c2ccncc2)cc1', 5.06);

Report pIC50 for every entry below.
1. CC(C)C[C@](C)(N)COc1ccc(-c2ccnc(C(F)F)c2)cc1C(F)(F)F
2. Cc1cc(-c2ccc(OC[C@@H](N)CC(C)C)c(C#N)c2)ccn1
3. COc1cc(-c2ccc(OC[C@@H](N)CC(C)C)c(C#N)c2)ccn1

1: 4.74; 2: 5.62; 3: 6.27

Report pIC50 for every entry below.
1. CC(C)C[C@](C)(N)COc1ccc(-c2ccncc2)cc1C(F)(F)F
2. CC(C)C[C@](C)(N)COc1ccc(-c2ccnc(C(F)F)c2)cc1C(F)F

1: 6.20; 2: 4.80

---

Experiment: Volume of distribution at steady state in mouse at 2 mg/kg, iv
Assay type: ADME, organism-based
Settings: in vivo, read-out: Vdss
value.kind: Vd (L/kg)
One number for each entry, in L/kg.

Read the entry "CC(C)C[C@](C)(N)COc1ccc(-c2ccnc(C(F)F)c2)nc1C(F)F" and write its reported Vd.
19

---

Assay: Drug concentration in naive Sprague-Dawley rat spinal cord at 10 mg/kg, po measured at 5.25 hrs post dose
Format: ADME, organism-based
Conditions: read-out: Ct
value.kind: concentration at 5.25 h (µM)
Numbers only, in µM.

Read the entry CC(C)C[C@](C)(N)COc1ccc(-c2ccnc(C(F)F)c2)nc1C(F)F [PILAVAPADIN] and write its reported concentration at 5.25 h.
16.1

---

Test: Cmax in rat at 3 mg/kg, po
Type: ADME, organism-based
Parameters: route oral, dose 3 mg/kg
Conditions: in vivo
value.kind: Cmax (ng/mL)
Numbers only, in ng/mL.

Read the entry "CC(C)C[C@](C)(N)COc1ccc(-c2ccnc(C(F)F)c2)nc1C(F)F" and write its reported Cmax.
60

---

Assay: Apparent elimination half life in rat at 2 mg/kg, iv
Assay type: ADME, organism-based
Details: in vivo, read-out: betat1/2(app) (converted)
value.kind: half-life (min)
Answers are plain numbers, in min.

Read the entry CC(C)C[C@](C)(N)COc1ccc(-c2ccnc(C(F)F)c2)nc1C(F)F [PILAVAPADIN] and write its reported half-life.
522

---

Assay: Volume of distribution at steady state in rat at 2 mg/kg, iv
Assay type: ADME, organism-based
Conditions: in vivo, read-out: Vdss
value.kind: Vd
Remember to quote the unit after the number.

Read the entry "CC(C)C[C@](C)(N)COc1ccc(-c2ccnc(C(F)F)c2)nc1C(F)F" and write its reported Vd.
19.6 L/kg

---

Test: Solubility of the compound in ethanol
Type: physicochemical
value.kind: solubility

Read the entry "CC(C)C[C@](C)(N)COc1ccc(-c2ccnc(C(F)F)c2)nc1C(F)F" and write its reported solubility.
> 50 mg/mL

---

Experiment: Volume of distribution at steady state in monkey at 2 mg/kg, iv
Type: ADME, organism-based, Macaca mulatta
Details: rhesus monkey, in vivo, read-out: Vdss
value.kind: Vd (L/kg)
Answers are plain numbers, in L/kg.

Read the entry "CC(C)C[C@](C)(N)COc1ccc(-c2ccnc(C(F)F)c2)nc1C(F)F" and write its reported Vd.
20.6

---

Assay: Solubility of the compound in citrate at pH 4.4 using crystalline form of sample
Type: physicochemical
value.kind: solubility (µg/mL)
Answers are plain numbers, in µg/mL.

Read the entry "CC(C)C[C@](C)(N)COc1ccc(-c2ccnc(C(F)F)c2)nc1C(F)F" and write its reported solubility.
1400

---

Test: AUC (infinity) in monkey at 3 mg/kg, po
Assay type: ADME, organism-based, Macaca mulatta
Parameters: route oral, time infinity, dose 3 mg/kg
Settings: rhesus monkey, in vivo
value.kind: AUC(0-inf) (ng·h/mL)
Numbers only, in ng·h/mL.

Read the entry "CC(C)C[C@](C)(N)COc1ccc(-c2ccnc(C(F)F)c2)nc1C(F)F" and write its reported AUC(0-inf).
270

---

Target: Cytochrome P450 3A4 (Homo sapiens, UniProt P08684)
Sequence (P08684 whole entry): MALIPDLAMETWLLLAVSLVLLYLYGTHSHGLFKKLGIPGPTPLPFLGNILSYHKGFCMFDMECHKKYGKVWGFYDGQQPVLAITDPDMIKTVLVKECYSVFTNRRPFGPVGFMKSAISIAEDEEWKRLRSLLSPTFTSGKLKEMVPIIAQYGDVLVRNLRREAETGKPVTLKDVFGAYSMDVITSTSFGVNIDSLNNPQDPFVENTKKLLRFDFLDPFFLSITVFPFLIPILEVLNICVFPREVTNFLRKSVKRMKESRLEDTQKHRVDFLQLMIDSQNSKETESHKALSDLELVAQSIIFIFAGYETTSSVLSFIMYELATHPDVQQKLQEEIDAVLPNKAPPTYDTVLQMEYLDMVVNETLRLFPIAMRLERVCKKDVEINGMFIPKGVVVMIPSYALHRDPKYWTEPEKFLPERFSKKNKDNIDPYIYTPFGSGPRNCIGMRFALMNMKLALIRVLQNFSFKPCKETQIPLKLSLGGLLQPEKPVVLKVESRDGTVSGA
Assay: Time dependent inhibition of CYP3A4 (unknown origin) using MDZ as substrate measured at 30 mins
Type: ADME
pIC50: −log10 of the molar value.
value.kind: pIC50

Read the entry "CC(C)C[C@](C)(N)COc1ccc(-c2ccnc(C(F)F)c2)nc1C(F)F" and write its reported pIC50.
< 4.40

---

Assay: MRT in rat at 2 mg/kg, iv
Format: ADME, organism-based
Conditions: in vivo
value.kind: MRT (h)
One number for each entry, in h.

Read the entry "CC(C)C[C@](C)(N)COc1ccc(-c2ccnc(C(F)F)c2)nc1C(F)F" and write its reported MRT.
11.6
